assay: Cell viability detection (MTT) in the HCVcc system; type: cell-based; conditions: human, Huh 7.5.1 cells infected with J399EM virus (HCVcc); Huh 7.5.1 cells, MTT, 72 hr
VALUE KIND: CC50 at 72 h

CC(C)OC(=O)[C@H](C)NP(=O)(OC[C@H]1O[C@@H](n2ccc(=O)[nH]c2=O)[C@](C)(F)[C@@H]1O)Oc1ccc(-c2ccccc2)cc1 (some centres unmarked) [Example 1]: > 10 µM

Please look at the following compound next.
Challenge: # get_value(readout='CC50 at 72 h', item= CC(C)OC(=O)[C@H](C)NP(=O)(OC[C@H]1O[C@@H](n2ccc(=O)[nH]c2=O)[C@](C)(F)[C@@H]1O)Oc1ccccc1 (some centres unmarked) [Positive control, reference compound] )
Response given: > 10 µM
